- System: RXF 393
- run.description: NCI tumour cell line growth inhibition, 48 h
Calls of active or inactive are those of the source. No stated cut-off is given here; in the data, active = GI50 up to about 1.1 µM and inactive = higher.
Classes used: active, inactive

- compound: "N=C(N)N/N=C/c1c(-c2ccc(N)cc2)nc2sccn12"
  group.label: "inactive"
- compound: "O=c1c2cc([N+](=O)[O-])ccc2oc2nc3n(c(=O)c12)CCCS3"
  group.label: "inactive"
- compound: "O=CN/C=C/c1ccc(O)c(O)c1"
  group.label: "inactive"
- compound: "N#Cc1nc(-c2ccccn2)oc1N"
  group.label: "inactive"
- compound: "COc1ccc(-c2cc(=O)c3c(O)c(OC)c(OC)c(OC)c3o2)cc1"
  group.label: "inactive"
- compound: "CN1C(c2ccccc2)=CC(=O)C(O)=C(c2ccccc2)S1(=O)=O"
  group.label: "inactive"
- compound: "CCOC(=O)c1ccc(/C(C)=N/NC(N)=S)cc1"
  group.label: "inactive"
- compound: "O=S(=O)(c1cc(Cl)ccc1Cl)N1CCN(c2ccc(Cl)c(Cl)c2)CC1"
  group.label: "inactive"
- compound: "COc1ccc2c(c1)OC[C@@H]1c3cc4c(cc3O[C@H]21)OCO4"
  group.label: "inactive"
- compound: "COc1ccc(CN=C(N)N)c2ccccc12"
  group.label: "inactive"
- compound: "COc1cc(OC)cc(Oc2nc3cc(F)c(F)cc3nc2-c2ccccc2)c1"
  group.label: "inactive"
- compound: "CCOC(=O)C(Cl)(NC(=O)NC(Cl)(C(=O)OCC)C(F)(F)F)C(F)(F)F (configuration not stated)"
  group.label: "inactive"
- compound: "O=C(Nc1nnc(S)[nH]1)C(=O)C(C(=O)c1ccc2ccccc2c1)C1OC(=O)c2ccccc21 (configuration not stated)"
  group.label: "inactive"
- compound: "COc1cccc(C2c3cc4c(cc3OC(N3CCCC3)C2C)OCO4)c1O (configuration not stated)"
  group.label: "inactive"
- compound: "COc1ccc(C2=CC(c3ccc4c(c3)OCO4)c3c(c4ccccc4oc3=O)O2)cc1OC (configuration not stated)"
  group.label: "active"
- compound: "N/C(=N\\O)N/N=C/c1ncccc1O"
  group.label: "inactive"
- compound: "O=C1c2ccccc2NC(c2cc(Cl)cc(Cl)c2O)N1CCc1ccccn1 (configuration not stated)"
  group.label: "inactive"

Value source: ChEMBL document CHEMBL1201862
